Experiment: NFAT Signaling Pathway (AID 444);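 also: carbachol stimulus at about its EC50 of 1 µM final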
Settings: Jurkat NFAT-bla M1, carbachol, beta-lactamase ratio, 5 h; at 17.2 µM (top of the series) unless noted
Records with an inconclusive call do not appear. Active and inactive are the calls of the source. Calls follow the shape of the dose curve; as a rule, active = well fitted curve in either direction with a large enough effect (not every such curve was filed as active); inconclusive = small, poorly fitted or top-dose-only effect, or another doubt; inactive = flat fitted curve, though single readings scatter.
Write down the outcome that applies. Available outcomes: label 1 (active), label 0 (inactive)

Known results for compounds:
Compound	Answer Label
CN(C)C(CN1C(=O)C2CC=CCC2C1=O)c1cn(C)c2ccccc12 (stereo unspecified)	label 0
c1ccc(Cc2nnc3n2CCCCC3)cc1	label 0
CC(Sc1nc(N2CCCCC2)c2c(c1C#N)CCCC2)C(=O)O (stereo unspecified)	label 0
CCOC(=O)c1sc(-n2[nH]c(C)cc2=O)nc1C	label 0
CCOc1ccc2nc(NC(NC(=O)CC)(C(=O)OC)C(F)(F)F)sc2c1 (stereo unspecified)	label 0

Query: Check the results log: what was the call for COc1cc(C2C3C(=O)N(c4ccccc4)C(=O)C3ON2c2ccccc2)ccc1O (stereo unspecified) ?
Result: label 0

Query: Check the results log: what was the call for CN1[C@@H]2CC(OC(=O)[C@@H](CO)c3ccccc3)C[C@H]1[C@H]1O[C@H]12 (stereo partly specified) ?
Result: label 1

Query: Check the results log: what was the call for O=C(O)c1ccnc(C(=O)O)c1 ?
Result: label 0

Query: Check the results log: what was the call for COc1ccccc1N1CCN(C2CCN(C(=O)c3cc(OC)c(OC)c(OC)c3)CC2)CC1 ?
Result: label 0

Query: Check the results log: what was the call for CCSc1nnc(NC(=O)NCC(F)(F)F)s1 ?
Result: label 0

Query: Check the results log: what was the call for CCOc1ccc(/C(O)=C2/C(=O)C(=O)N(c3nc(C)c(C)s3)C2c2ccco2)cc1 (stereo unspecified) ?
Result: label 0
